test_target: activated hepsin (Homo sapiens, UniProt P05981)
Construct: purchased R&D Systems 4776-SE-010
Sequence (P05981 163-417 limits assumed): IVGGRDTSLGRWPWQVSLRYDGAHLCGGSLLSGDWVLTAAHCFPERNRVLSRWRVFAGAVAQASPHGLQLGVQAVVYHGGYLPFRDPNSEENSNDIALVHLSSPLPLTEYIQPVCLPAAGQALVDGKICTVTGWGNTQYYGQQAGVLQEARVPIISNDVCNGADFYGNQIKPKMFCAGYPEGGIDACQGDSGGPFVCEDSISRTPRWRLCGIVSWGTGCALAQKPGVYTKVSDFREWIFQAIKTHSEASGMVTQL
Sequence (P05981 1-162 partner limits assumed): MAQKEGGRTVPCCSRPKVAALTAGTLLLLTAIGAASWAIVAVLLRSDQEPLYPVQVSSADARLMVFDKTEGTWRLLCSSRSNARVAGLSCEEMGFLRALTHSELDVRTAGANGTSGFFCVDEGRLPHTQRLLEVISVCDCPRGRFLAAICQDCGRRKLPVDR
assay_explanation: Fluorescent kinetic enzyme assay of hepsin activity (Boc-QAR-AMC)
Type: biochemical
run_parameters: Table 2; read-out: Hepsin (IC50 nM)
quantity_kind: IC50 (nM)
Hi! Could you send only the number? It should be in nM, unit omitted.

*Q* Write down the reported IC50 of "CC(=O)N[C@H]1CC(=O)NCCCC[C@@H](C(=O)N[C@@H](CCCNC(=N)N)C(=O)c2nc3ccccc3s2)NC(=O)[C@H](Cc2ccccc2)NC1=O" , test system: activated hepsin (Homo sapiens, UniProt P05981).
*A* 17.4

*Q* Write down the reported IC50 of CC(=O)N[C@H]1CC(=O)N(C)CCCC[C@@H](C(=O)N[C@@H](CCCNC(=N)N)C(=O)c2nc3ccccc3s2)NC(=O)[C@H](CC(C)C)NC1=O [VD4192B] , test system: activated hepsin (Homo sapiens, UniProt P05981).
*A* 14.9

*Q* Write down the reported IC50 of "CC(=O)N[C@H]1CC(=O)NCCCC[C@@H](C(=O)N[C@@H](CCCNC(=N)N)C(=O)c2nc3ccccc3s2)NC(=O)[C@H](Cc2ccc(O)cc2)NC1=O" , test system: activated hepsin (Homo sapiens, UniProt P05981).
*A* 44

*Q* Write down the reported IC50 of "CC(=O)N[C@H]1CC(=O)NCCCC[C@@H](C(=O)N[C@@H](CCCNC(=N)N)C(=O)c2nc3ccccc3s2)NC(=O)CNC1=O" , test system: activated hepsin (Homo sapiens, UniProt P05981).
*A* 5.9

*Q* Write down the reported IC50 of CC(=O)N[C@H]1Cc2ccc(cc2)OC/C=C\CNC(=O)C[C@@H](C(=O)N[C@H](CCCNC(=N)N)C(=O)c2nc3ccccc3s2)NC(=O)[C@H](CC(C)C)NC1=O [VD4054A] , test system: activated hepsin (Homo sapiens, UniProt P05981).
*A* 14

*Q* Write down the reported IC50 of "CC(=O)N[C@H]1CCCCNC(=O)CC[C@@H](C(=O)N[C@@H](CCCNC(=N)N)C(=O)c2nc3ccccc3s2)NC(=O)[C@H](CCCNC(=N)N)NC1=O" , test system: activated hepsin (Homo sapiens, UniProt P05981).
*A* 0.08

*Q* Write down the reported IC50 of "CC(=O)N[C@H]1CC(=O)NCCCC[C@@H](C(=O)N[C@@H](CCCNC(=N)N)C(=O)c2nccs2)NC(=O)[C@H](CC(C)C)NC1=O" , test system: activated hepsin (Homo sapiens, UniProt P05981).
*A* 136

* * *

test_target: recombinant HGFA serine protease domain (Homo sapiens, UniProt Q04756)
Construct: His6 tag (N); seven amino acid spacer plus TEV cleavage site (N); made in house; host or cells: High 5 insect cells (baculovirus; Sf9 for virus production)
Sequence (Q04756 373-655): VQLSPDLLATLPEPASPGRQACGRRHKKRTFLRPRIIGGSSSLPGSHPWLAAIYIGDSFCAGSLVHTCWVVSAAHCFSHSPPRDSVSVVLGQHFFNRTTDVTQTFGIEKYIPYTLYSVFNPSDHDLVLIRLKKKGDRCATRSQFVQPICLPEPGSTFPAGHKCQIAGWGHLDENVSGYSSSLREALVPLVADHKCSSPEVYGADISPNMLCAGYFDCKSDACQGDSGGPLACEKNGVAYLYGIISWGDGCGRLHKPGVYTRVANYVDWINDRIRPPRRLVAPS
assay_explanation: Fluorescent kinetic enzyme assay of HGFA activity (Boc-QLR-AMC)
Type: biochemical
run_parameters: Table 2; read-out: HGFA (IC50 nM)
quantity_kind: IC50 (nM)
Hi! Could you send only the number? It should be in nM, unit omitted.

*Q* Which IC50 is reported for this compound? "CC(=O)N[C@H]1Cc2ccc(cc2)OCCCC[C@@H](C(=O)N[C@@H](CCCNC(=N)N)C(=O)c2nc3ccccc3s2)NC(=O)[C@H](CC(C)C)NC1=O"
*A* 7.99

*Q* Which IC50 is reported for this compound? CC(=O)N[C@H]1CC(=O)N(C)CCCC[C@@H](C(=O)N[C@@H](CCCNC(=N)N)C(=O)c2nc3ccccc3s2)NC(=O)[C@H](CC(C)C)NC1=O [VD4192C2]
*A* 8560

*Q* Which IC50 is reported for this compound? CC(=O)N[C@H]1CC(=O)N(C)CCCC[C@@H](C(=O)N[C@@H](CCCNC(=N)N)C(=O)c2nc3ccccc3s2)NC(=O)[C@H](CC(C)C)NC1=O [VD4192B]
*A* 12300

*Q* Which IC50 is reported for this compound? "CC(=O)N[C@H]1CC(=O)NCCCC[C@@H](C(=O)N[C@@H](CCCNC(=N)N)C(=O)c2nc3ccccc3s2)NC(=O)[C@H](C)NC1=O"
*A* 13700

*Q* Which IC50 is reported for this compound? "C=CCNC(=O)CC[C@H](NC(=O)[C@H](CC(C)C)NC(=O)[C@H](Cc1ccc(OCC=C)cc1)NC(C)=O)C(=O)N[C@@H](CCCNC(=N)N)C(=O)c1nc2ccccc2s1"
*A* 4750

*Q* Which IC50 is reported for this compound? CC(=O)N[C@H]1Cc2ccc(cc2)OCCCC[C@@H](C(=O)N[C@@H](CCCNC(=N)N)C(=O)c2nc3ccccc3s2)NC(=O)[C@@H](Cc2c[nH]c3ccccc23)NC1=O [VD4162A]
*A* 52

*Q* Which IC50 is reported for this compound? "CC(=O)N[C@H]1CCCCn2cc(nn2)C[C@H](C(=O)N[C@@H](CCCNC(=N)N)C(=O)c2nc3ccccc3s2)NC(=O)[C@H](CC(C)C)NC1=O"
*A* 15600

*Q* Which IC50 is reported for this compound? "CC(=O)N[C@H]1CCCCNC(=O)CC[C@@H](C(=O)N[C@@H](CCCNC(=N)N)C(=O)c2nc3ccccc3s2)NC(=O)[C@H](CC(C)C)NC1=O"
*A* 4470
